System: normal primary NK cells, pool 1 (3 donors), resting (IL-2 0 ng/mL);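 further: normalised to DMSO-only wells as negative and benzethonium chloride as positive control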
Protocol notes: percent inhibition of viability; higher = more inhibition
Assay conditions: 72 h; 10 nM
Observed property: percent inhibition of viability (%)
Write the value in % as a bare number.

{"Compound": "Oc1nc(-c2ccc(C(F)(F)F)cc2)nc2c1CSCC2 [XAV-939] (max concentration tested 10000 nM)", "Assay system": "normal primary NK cells, pool 1 (3 donors), resting (IL-2 0 ng/mL)", "Observed property": "percent inhibition of viability", "Value measured": -1.64}
{"Compound": "CC(C)c1c(C(=O)Nc2ccccc2)c(-c2ccccc2)c(-c2ccc(F)cc2)n1CC[C@@H](O)C[C@@H](O)CC(=O)O [Atorvastatin] (max concentration tested 10000 nM)", "Assay system": "normal primary NK cells, pool 1 (3 donors), resting (IL-2 0 ng/mL)", "Observed property": "percent inhibition of viability", "Value measured": -6.76}
{"Compound": "CN1CCN(c2nc(C3=C(c4c[nH]c5ccccc45)C(=O)NC3=O)c3ccccc3n2)CC1 [Sotrastaurin] (max concentration tested 10000 nM)", "Assay system": "normal primary NK cells, pool 1 (3 donors), resting (IL-2 0 ng/mL)", "Observed property": "percent inhibition of viability", "Value measured": 2.96}

Let us examine a further case.
Challenge: Would you kindly share the measured percent inhibition of viability for COc1nc(N)nc2c1ncn2[C@@H]1O[C@H](CO)[C@@H](O)[C@@H]1O [Nelarabine] (max concentration tested 10000 nM) ?
Response given: 22.7

###

Test system: normal primary NK cells, pool 1 (3 donors) (IL-2 2.5 ng/mL);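 further: normalised to DMSO-only wells as negative and benzethonium chloride as positive control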
Protocol notes: percent inhibition of viability; higher = more inhibition
Assay conditions: 72 h; 0.1 nM
We begin with a simple list: items and their reported percent inhibition of viability.
Write the value in % as a bare number.

Please review the following examples before continuing.
{"Compound": "C[C@]12O[C@H](C[C@]1(O)CO)n1c3ccccc3c3c4c(c5c6ccccc6n2c5c31)CNC4=O [Lestaurtinib] (max concentration tested 1000 nM)", "Assay system": "normal primary NK cells, pool 1 (3 donors) (IL-2 2.5 ng/mL)", "percent inhibition of viability (%)": -8.02}
{"Compound": "NC(=O)Nc1cc(-c2cccc(F)c2)sc1C(=O)N[C@H]1CCCNC1 [AZD7762] (max concentration tested 1000 nM)", "Assay system": "normal primary NK cells, pool 1 (3 donors) (IL-2 2.5 ng/mL)", "percent inhibition of viability (%)": -5.93}
{"Compound": "Cc1cc2c(F)c(Oc3ncnn4cc(OC[C@@H](C)O)c(C)c34)ccc2[nH]1 [Brivanib] (max concentration tested 1000 nM)", "Assay system": "normal primary NK cells, pool 1 (3 donors) (IL-2 2.5 ng/mL)", "percent inhibition of viability (%)": -8.41}
{"Compound": "Cn1ncnc1[C@H]1c2n[nH]c(=O)c3cc(F)cc(c23)N[C@@H]1c1ccc(F)cc1 [Talazoparib] (max concentration tested 1000 nM)", "Assay system": "normal primary NK cells, pool 1 (3 donors) (IL-2 2.5 ng/mL)", "percent inhibition of viability (%)": 7.55}

Challenge: Would you kindly share the measured percent inhibition of viability for NC(=O)c1cccc(-c2cccc(OC(=O)NC3CCCCC3)c2)c1 [URB597] (max concentration tested 1000 nM) ?
Response given: 5.21
